Measured NanoBRET Fold Response by item
- Target desc: P2RY6 (Homo sapiens)
- Construct: purchased Promega (in-house HiBiT-GPCR construct library, NanoBRET)
- Sequence (Q15077 whole entry): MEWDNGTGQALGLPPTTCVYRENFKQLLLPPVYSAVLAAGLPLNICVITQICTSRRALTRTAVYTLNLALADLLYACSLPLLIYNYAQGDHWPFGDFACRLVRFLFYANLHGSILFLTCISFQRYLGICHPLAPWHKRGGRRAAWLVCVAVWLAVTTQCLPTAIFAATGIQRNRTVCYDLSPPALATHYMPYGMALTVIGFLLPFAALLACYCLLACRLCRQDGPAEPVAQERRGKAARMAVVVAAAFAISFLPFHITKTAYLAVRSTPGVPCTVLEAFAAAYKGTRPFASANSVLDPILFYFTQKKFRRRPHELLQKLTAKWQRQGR
- Procedure text: NanoBRET screen HiBiT-P2RY6 in HEK293
- Type: binding
- Setup conditions: P2RY6; tracer 1μM
Format: numeric value only, no unit, no commentary.

Here is how some molecules turned out for NanoBRET Fold Response.
smiles_representation=Cc1cc2c(s1)Nc1ccccc1N=C2N1CCN(CCCNC(=O)CCOCCOCCOCCOCCNC(=O)CCc2ccc3n2[B-](F)(F)[N+]2=C(c4ccc[nH]4)C=CC2=C3)CC1 value_observed=0.95
smiles_representation=COc1ccccc1N1CCN(CCCCN2C(=O)c3ccc(CNC(=O)CCOCCOCCOCCOCCNC(=O)CCc4ccc5n4[B-](F)(F)[N+]4=C(c6ccc[nH]6)C=CC4=C5)cc3C2=O)CC1 value_observed=1.17

For the next question, use this molecule.
Tell me NanoBRET Fold Response reported for O=C(CCc1ccc2n1[B-](F)(F)[N+]1=C(c3ccc[nH]3)C=CC1=C2)NCCOCCOCCNC(=O)OCCOCCN1CCN(C2=Nc3ccccc3Sc3ccccc32)CC1
0.96
